assay: in vitro; details: hamster, hepatocytes, t1/2 (hamster hepatocytes, compound/ritonavir 1:1)
Threshold 40 min. half-life at 1 µM below it: fulfilled. half-life at 1 µM at it or above: not fulfilled.

COMPOUND	ANSWER_LABEL
CC(C)(C)[C@H](NC(=O)C(F)(F)F)C(=O)N1C[C@H]2[C@@H]([C@H]1C(=O)N[C@@H](C[C@@H]1CCNC1=O)C(=O)COc1c(F)c(F)c(CO)c(F)c1F)C2(C)C [compound 7]	not fulfilled
COc1cccc2[nH]c(C(=O)N[C@@H](Cc3cccc(F)c3)C(=O)N[C@@H](C[C@@H]3CCNC3=O)C(=O)COc3c(F)c(F)c(C(C)O)c(F)c3F)cc12 (some centres unmarked) [compound 8]	fulfilled
COc1cccc2[nH]c(C(=O)N[C@@H](Cc3cccc(F)c3)C(=O)N[C@@H](C[C@@H]3CCNC3=O)C(=O)COc3c(F)c(F)c(C(C)(C)O)c(F)c3F)cc12 [compound 10]	not fulfilled
COc1cccc2[nH]c(C(=O)N[C@@H](Cc3cccc(F)c3)C(=O)N[C@@H](C[C@@H]3CCNC3=O)C(=O)COc3c(F)c(F)c(CO)c(F)c3F)cc12 [compound 1]	fulfilled
CC(C)(O)c1c(F)c(F)c(OCC(=O)[C@H](C[C@@H]2CCNC2=O)NC(=O)[C@@H]2[C@@H]3[C@H](CN2C(=O)[C@@H](NC(=O)C(F)(F)F)C(C)(C)C)C3(C)C)c(F)c1F [compound 14]	not fulfilled

* * *

experiment: in vitro; conditions: mouse, plasma, mouse plasma protein binding, fraction unbound (Fu)

MOLECULE	fraction unbound at 3 h, 2 µM
CC(C)(O)c1c(F)c(F)c(OCC(=O)[C@H](C[C@@H]2CCNC2=O)NC(=O)[C@@H]2[C@@H]3[C@H](CN2C(=O)[C@@H](NC(=O)C(F)(F)F)C(C)(C)C)C3(C)C)c(F)c1F	0.0076
COc1cccc2[nH]c(C(=O)N[C@@H](Cc3cccc(F)c3)C(=O)N[C@@H](C[C@@H]3CCNC3=O)C(=O)COc3c(F)c(F)c(F)c(F)c3F)cc12 [compound 16, reference compound]	0.0067
COc1cccc2[nH]c(C(=O)N[C@@H](Cc3cccc(F)c3)C(=O)N[C@@H](C[C@@H]3CCNC3=O)C(=O)COc3c(F)c(F)c(CO)c(F)c3F)cc12	0.0194
COc1cccc2[nH]c(C(=O)N[C@@H](Cc3cccc(F)c3)C(=O)N[C@@H](C[C@@H]3CCNC3=O)C(=O)COc3c(F)c(F)c(C(C)O)c(F)c3F)cc12 (stereo partly drawn)	0.0083
O=C(N[C@@H](Cc1c[nH]c2ccccc12)C(=O)N[C@@H](C[C@@H]1CCNC1=O)C(=O)COc1c(F)c(F)c(CO)c(F)c1F)c1cc2ccccc2[nH]1	0.0121
CC(C)(C)[C@H](NC(=O)C(F)(F)F)C(=O)N1C[C@H]2[C@@H]([C@H]1C(=O)N[C@@H](C[C@@H]1CCNC1=O)C(=O)COc1c(F)c(F)c(CO)c(F)c1F)C2(C)C	0.0355

* * *

experiment: Mouse liver microsomal stability; conditions: microsomes, pH 7.4
The entries below are paired with their reported half-life at 1 µM.

COMPOUND	half-life at 1 µM, min
COc1cccc2[nH]c(C(=O)N[C@@H](Cc3cccc(F)c3)C(=O)N[C@@H](C[C@@H]3CCNC3=O)C(=O)COc3c(F)c(F)c(C(C)O)c(F)c3F)cc12 (stereo partly drawn)	1.28
COc1cccc2[nH]c(C(=O)N[C@@H](Cc3cccc(F)c3)C(=O)N[C@@H](C[C@@H]3CCNC3=O)C(=O)COc3c(F)c(F)c(C(C)(C)O)c(F)c3F)cc12	1.9
COc1cccc2[nH]c(C(=O)N[C@@H](Cc3cccc(F)c3)C(=O)N[C@@H](C[C@@H]3CCNC3=O)C(=O)COc3c(F)c(F)c(CO)c(F)c3F)cc12	1.18
